Data credit: paper PMC4812144

Target: Na+/K+-ATPase (NKA) (Sus scrofa, UniProt P05024)
Construct: The NKA was prepared from porcine kidney outer medulla; from tissue; host or cells: porcine kidney outer medulla
Assay: Ouabain-sensitive ATPase activity of NKA (Baginsky assay)
Assay type: biochemical, porcine
Conditions: ouabain-sensitive ATPase activity, NKA from porcine kidney, 3 mM ATP; read-out: IC50 for inhibition of the NKA activity
Protocol: The NKA was prepared from porcine kidney outer medulla using the method of Jorgensen and Klodos with some modifications (Jørgensen, [1988]; Klodos et al., [2002]; Kubala et al., [2014]). […] The Baginsky method detects a product of ATP hydrolysis, inorganic phosphate, which interacts with ammonium molybdate. The reaction results in a color change, which can be monitored as a change of absorbance at 710 nm, and was measured using microplate reader Synergy Mx (BioTek, USA). […]
What pIC50 was measured for each of the following?
Answers are plain numbers, as −log10 of the molar value.

Examples from the recorded data:
molecule	target.of.assay	pIC50
COc1cc(C2Oc3c(O)cc([C@H]4Oc5cc(O)cc(O)c5C(=O)[C@@H]4O)cc3C2CO)ccc1O (some centres unmarked)	Na+/K+-ATPase (NKA) (Sus scrofa, UniProt P05024)	3.96
COc1cc(C2Oc3c(O)cc(-c4oc5cc(O)cc(O)c5c(=O)c4O)cc3C2CO)ccc1O (centres unmarked) [DHSCH, dehydrosilychristin]	Na+/K+-ATPase (NKA) (Sus scrofa, UniProt P05024)	4.42
COc1cc(C2C3C=C(c4oc5cc(O)cc(O)c5c(=O)c4O)C4C2COC4(O)C3=O)ccc1O (centres unmarked) [DHSD, dehydrosilydianin]	Na+/K+-ATPase (NKA) (Sus scrofa, UniProt P05024)	4.44

# evaluate next
Would you mind telling me what pIC50 value was observed for COc1cc(C2Oc3cc(-c4oc5cc(O)cc(O)c5c(=O)c4O)ccc3OC2CO)ccc1O (centres unmarked) ?
3.05
